- tested on: HIV-1 RT Q151Mc (Human immunodeficiency virus type 1 group M subtype B, UniProt P03366, A661V/F676L/F715Y/Q750M/V674I)
- Construct: made in house; host or cells: Escherichia coli BL21
- test method notes: ATP-dependent rescue assay
- Assay type: biochemical
measurement type: pKd
Reminder that pKd means the negative base-10 logarithm of the concentration expressed in mol/L.

Can you look up the measured pKd of Nc1ncnc2c1ncn2[C@@H]1O[C@H](COP(=O)(O)OP(=O)(O)OP(=O)(O)O)[C@@H](O)[C@H]1O [ATP, adenosine triphosphate] for me?
2.64

The measurements presented in this section are drawn from paper PMC3020970.
